Target: Arginase-2, mitochondrial (Homo sapiens) (UniProt P78540)
Sequence (P78540 whole entry): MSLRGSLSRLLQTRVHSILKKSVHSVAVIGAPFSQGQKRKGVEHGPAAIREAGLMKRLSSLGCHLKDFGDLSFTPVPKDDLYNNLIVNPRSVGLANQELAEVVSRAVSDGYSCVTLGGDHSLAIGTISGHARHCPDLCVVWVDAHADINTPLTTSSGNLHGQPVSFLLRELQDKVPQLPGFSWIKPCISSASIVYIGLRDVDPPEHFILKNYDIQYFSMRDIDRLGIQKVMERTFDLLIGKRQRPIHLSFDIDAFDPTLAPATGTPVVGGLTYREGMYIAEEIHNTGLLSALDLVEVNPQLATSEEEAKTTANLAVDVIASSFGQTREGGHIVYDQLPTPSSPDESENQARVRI
Experiment: in vitro enzyme assay to detect the production of urea directly proportional to the activity of Arginase II; note: in the data most compounds retested in dose-response had high values
Type: functional
Parameters: scale not given: direction of the effect not stated beside the values
Conditions: 33.3 µM
property.name: Percent Effect (%)
Express it in %; write the number only.

// solved cases for Percent Effect follow
[
  {
    "compound": "Cc1csc2c(N3CCC(NCCCc4ccncc4)CC3)ncnc12",
    "system": "Arginase-2, mitochondrial (Homo sapiens) (UniProt P78540)",
    "unit.text": "%",
    "result.value": -1.38
  },
  {
    "compound": "COc1c(C(=O)NCc2cccnc2)nnn1Cc1ccc(C)cc1",
    "system": "Arginase-2, mitochondrial (Homo sapiens) (UniProt P78540)",
    "unit.text": "%",
    "result.value": 1.23
  }
]

The measured Percent Effect associated with CS(=O)(=O)CC(=O)N1C[C@H]2CCC[C@@]2(COCc2ccccn2)C1 reads 11.2

Data point: CCCS(=O)(=O)N1CCO[C@H]2[C@H](OCc3ccccn3)CC[C@@H]21 ; Percent Effect = 5

Just so you know, measured Percent Effect for CC1c2ncc(Cn3cncn3)n2CCN1C(=O)C1CCOCC1 (stereo unspecified) came out at -56.5

For reference, reported Percent Effect for COc1ncccc1NC(=O)N(Cc1ccc(C)o1)C1CC1 stands at -4.27

###

Target: Tyrosyl-tRNA synthetase, putative (Trypanosoma cruzi (strain CL Brener)) (UniProt Q4DSP6)
Sequence (whole entry): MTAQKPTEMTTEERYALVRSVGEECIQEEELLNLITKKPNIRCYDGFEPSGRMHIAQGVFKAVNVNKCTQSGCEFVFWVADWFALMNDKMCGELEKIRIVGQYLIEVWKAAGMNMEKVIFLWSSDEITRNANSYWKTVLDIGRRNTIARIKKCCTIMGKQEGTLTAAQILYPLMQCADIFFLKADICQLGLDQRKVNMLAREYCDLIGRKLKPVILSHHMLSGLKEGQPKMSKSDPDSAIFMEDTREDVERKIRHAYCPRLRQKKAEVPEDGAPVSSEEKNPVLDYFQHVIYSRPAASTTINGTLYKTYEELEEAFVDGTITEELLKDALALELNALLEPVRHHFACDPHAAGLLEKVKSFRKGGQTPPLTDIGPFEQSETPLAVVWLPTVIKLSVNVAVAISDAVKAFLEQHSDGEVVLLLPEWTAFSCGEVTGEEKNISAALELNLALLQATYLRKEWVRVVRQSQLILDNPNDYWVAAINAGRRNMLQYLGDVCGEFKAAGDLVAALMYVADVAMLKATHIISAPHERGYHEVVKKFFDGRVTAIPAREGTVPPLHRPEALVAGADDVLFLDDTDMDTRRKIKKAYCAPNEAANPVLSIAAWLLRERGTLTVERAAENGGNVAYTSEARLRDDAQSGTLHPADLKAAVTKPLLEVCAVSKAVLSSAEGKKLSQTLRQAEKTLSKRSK
Assay: Trypanosoma cruzi tyrosyl tRNA synthetase (TcYRS) SOP
Assay type: functional
Parameters: scale not given: direction of the effect not stated beside the values
Conditions: 30 µM
property.name: Percent Effect
Please format your answer as a value with the unit trailing.

# count of solved cases: 3
[
  {
    "molecule": "O=C(COc1coc(CN2CCCCCC2)cc1=O)c1ccccc1",
    "system": "Tyrosyl-tRNA synthetase, putative (Trypanosoma cruzi (strain CL Brener)) (UniProt Q4DSP6)",
    "Percent Effect": "0%"
  },
  {
    "molecule": "COc1ccc(CN(Cc2cncn2C)CC2CCCO2)c(OC)c1 (centres undefined)",
    "system": "Tyrosyl-tRNA synthetase, putative (Trypanosoma cruzi (strain CL Brener)) (UniProt Q4DSP6)",
    "Percent Effect": "14.3%"
  },
  {
    "molecule": "O=C1CCCc2cc(-c3csc(CCN4CCOC4=O)n3)ccc2N1",
    "system": "Tyrosyl-tRNA synthetase, putative (Trypanosoma cruzi (strain CL Brener)) (UniProt Q4DSP6)",
    "Percent Effect": "26.8%"
  }
]

Kindly note the recorded Percent Effect for CC(=O)N1CC(=O)N(c2cnn(C)c2)CC12CCN(Cc1ccoc1)C2 (centres undefined) , which is 11%

Kindly note the recorded Percent Effect for CCc1nnc(CN2CCN(C(=O)c3cc4ccccc4[nH]3)CC2)o1 , which is 2.35%

The value of Percent Effect measured for the molecule COCCCn1ccnc1-c1cnc(OC)nc1 turned out to be 4.88%

Value of Percent Effect reported for the molecule CN1CC(=O)N(c2cccc(F)c2)CC12CCN(Cc1cccnc1)C2 (centres undefined) is 11.5%

Consider CC(C)(C)c1ncc2c(n1)CN(C(=O)c1ccncc1)C2 . Its measured Percent Effect is 16.1%

The molecule identified as CCCc1n[nH]c(C2CN(CCCOc3ccccc3)CCO2)n1 (centres undefined) registered its Percent Effect at 7.59%

###

Biological target: Arginase-2, mitochondrial (Homo sapiens)
Assay: in vitro enzyme assay to detect the production of urea directly proportional to the activity of Arginase II; note: in the data most compounds retested in dose-response had high values
Assay type: functional
Set-up: scale not given: direction of the effect not stated beside the values
Conditions: 33.3 µM
Reported Percent Effect values for the following compounds.
Express the reported value numerically, then name its unit.

Solved cases below.
[
  {
    "compound": "COCC(c1cccc(C(F)(F)F)c1)N(C)C(=O)c1ccncc1 (centres undefined)",
    "Percent Effect": "-4.21%"
  },
  {
    "compound": "CNc1nc(C(=O)N2CCCC(c3nccn3CC3CCC3)C2)cs1 (centres undefined)",
    "Percent Effect": "0.455%"
  },
  {
    "compound": "Cc1cccc(-n2ncc(C(=O)N3CCn4c(C)nnc4C3)c2C)c1",
    "Percent Effect": "1.8%"
  },
  {
    "compound": "CC(C)c1nccn1C1CCCN(C(=O)c2cnc[nH]2)C1 (centres undefined)",
    "Percent Effect": "0.719%"
  },
  {
    "compound": "CN(Cc1cnn(C)c1)C(=O)c1ccc(=O)n(C)n1",
    "Percent Effect": "-5.92%"
  },
  {
    "compound": "O=C(c1cscn1)N1C[C@@H]2C[C@@H](c3nnc(C4CC4)o3)O[C@@H]2C1",
    "Percent Effect": "22.6%"
  }
]

Quick note, Percent Effect for Cc1ccc(C(CNCc2ccncc2)N2CCOCC2)s1 (centres undefined) landed at 1.67%

The recorded Percent Effect for entry CC(=O)Nc1ncc(S(=O)(=O)Nc2ccc(F)cc2F)s1 equals -5.11%

Consider COc1cc(OC)c(C2Nc3cc(Cl)ccc3C3=NCCN32)cc1OC (centres undefined) . Its measured Percent Effect is -3.5%

Percent Effect reported for this compound O=C([C@H]1COC[C@H]2CN(Cc3ccco3)C[C@H]21)N1CCCO1 : -47.9%

// Percent Effect value for O=C(c1cccc(F)c1)N1CCOC(c2nc(-c3ncccn3)no2)C1 (centres undefined) : -0.699%

###

Target: Protein translocase subunit SecA (Escherichia coli (strain K12)) (UniProt P10408)
Sequence (P10408 whole entry): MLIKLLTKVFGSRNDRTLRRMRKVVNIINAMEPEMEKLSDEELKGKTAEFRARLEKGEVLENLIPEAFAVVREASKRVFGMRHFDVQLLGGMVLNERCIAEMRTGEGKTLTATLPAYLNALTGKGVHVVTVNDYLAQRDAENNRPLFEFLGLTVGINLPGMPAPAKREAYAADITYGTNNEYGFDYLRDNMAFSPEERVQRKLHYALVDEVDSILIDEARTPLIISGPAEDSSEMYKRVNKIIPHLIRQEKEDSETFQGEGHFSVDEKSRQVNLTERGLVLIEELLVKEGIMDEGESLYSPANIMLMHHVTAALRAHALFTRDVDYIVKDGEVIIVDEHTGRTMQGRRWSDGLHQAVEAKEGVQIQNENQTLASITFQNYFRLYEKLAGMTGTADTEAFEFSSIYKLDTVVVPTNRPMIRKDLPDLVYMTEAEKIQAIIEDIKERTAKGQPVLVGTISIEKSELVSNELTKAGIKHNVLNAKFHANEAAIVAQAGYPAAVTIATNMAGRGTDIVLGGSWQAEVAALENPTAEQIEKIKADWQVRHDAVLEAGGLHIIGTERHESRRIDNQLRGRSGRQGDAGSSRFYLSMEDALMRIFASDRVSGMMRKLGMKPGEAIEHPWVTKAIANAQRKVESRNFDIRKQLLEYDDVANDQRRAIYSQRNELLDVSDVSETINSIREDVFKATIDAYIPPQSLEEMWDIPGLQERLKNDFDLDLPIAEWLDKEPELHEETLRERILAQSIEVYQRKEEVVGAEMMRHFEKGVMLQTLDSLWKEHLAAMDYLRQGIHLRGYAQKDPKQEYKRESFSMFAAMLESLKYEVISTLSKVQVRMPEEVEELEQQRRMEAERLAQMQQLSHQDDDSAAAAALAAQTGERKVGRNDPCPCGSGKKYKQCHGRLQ
Experiment: Assay to Identify E. coli SecA ATPase Inhibitors
Assay type: functional
Set-up: scale not given: direction of the effect not stated beside the values
Conditions: 30 µM
Potency and affinity values are given separately.
Percent Effect listing for selected molecules.
Report only the number, with the unit % understood.

[
  {
    "molecule": "O=C(NCc1ccccn1)Nc1cc(C(F)(F)F)c[nH]c1=O",
    "Percent Effect [%]": -6.27
  },
  {
    "molecule": "COCC(=O)N1CCCC1c1cc(Nc2nnc(C)s2)nc(C)n1 (centres undefined)",
    "Percent Effect [%]": -7.56
  },
  {
    "molecule": "COC(=O)c1ccccc1NC(=O)c1nc2ccccc2n(C)c1=O",
    "Percent Effect [%]": -1.59
  },
  {
    "molecule": "CN(Cc1nnc(-c2ccco2)o1)CC1CCCN1c1cccnn1 (centres undefined)",
    "Percent Effect [%]": -4.76
  },
  {
    "molecule": "CCN(C(=O)CN(C)C(c1cccc(F)c1)c1ccccn1)C1CC1 (centres undefined)",
    "Percent Effect [%]": -1.83
  },
  {
    "molecule": "Cc1nc(C2(NCC(=O)NCCc3cccs3)CCCC2)no1",
    "Percent Effect [%]": -2.85
  },
  {
    "molecule": "CN1CCOC(CNCc2coc(-c3ccccc3)n2)C1 (centres undefined)",
    "Percent Effect [%]": 0.225
  },
  {
    "molecule": "Cc1nccc(-c2cccc(NCC(=O)N3CCNC3=O)c2)n1",
    "Percent Effect [%]": -3.58
  }
]

So the reported Percent Effect for O=C(c1cnco1)N1CCCC(Cc2cccc3ncccc23)C1 (centres undefined) , on Protein translocase subunit SecA (Escherichia coli (strain K12)) (UniProt P10408), turned out to be -1.91

Known value: Protein translocase subunit SecA (Escherichia coli (strain K12)) (UniProt P10408) Percent Effect of the molecule Cc1noc(-c2ccc(N3CCCC(C(=O)N4CCSCC4)C3)nc2)n1 (centres undefined) equals -5.7

Observed Percent Effect, Protein translocase subunit SecA (Escherichia coli (strain K12)) (UniProt P10408), NS(=O)(=O)CCNC(=O)c1nnn(-c2ccc(F)cc2)c1C1CC1 : -0.864

# Percent Effect measured on Protein translocase subunit SecA (Escherichia coli (strain K12)) (UniProt P10408) for item CCOc1ncccc1C(=O)N1CCCCC1c1nccs1 (centres undefined) = -4.08

Recorded Percent Effect for N#Cc1ccc(CN2CCN(C(=O)c3cc(C4CC4)[nH]n3)CC2)cc1 on Protein translocase subunit SecA (Escherichia coli (strain K12)) (UniProt P10408) was -4.3

Form field, Percent Effect with Protein translocase subunit SecA (Escherichia coli (strain K12)) (UniProt P10408), item O=C(NCC1CC1)[C@H]1C[C@@H]2CCN(Cc3nccs3)C[C@@H]2O1 : -2.59

Percent Effect of O=C(CSc1ccc2c(c1)OCCO2)NS(=O)(=O)C1CCCCC1 , assay on Protein translocase subunit SecA (Escherichia coli (strain K12)) (UniProt P10408), is -2.58

Record COc1ccc(CNC(C)c2ccc3[nH]c(=O)[nH]c3c2)cc1 (centres undefined) / Protein translocase subunit SecA (Escherichia coli (strain K12)) (UniProt P10408), Percent Effect recorded as 0.617

Query Fc1cccc(N2CCCC3(CN(Cc4ccncc4)CCO3)C2)c1 (centres undefined) on Protein translocase subunit SecA (Escherichia coli (strain K12)) (UniProt P10408); Percent Effect returned: -2.7

// molecule Cc1cnnn1Cc1ncn2c1CN(Cc1cccs1)CCC2 , assay Protein translocase subunit SecA (Escherichia coli (strain K12)) (UniProt P10408), Percent Effect value: -5.14

Percent Effect for Protein translocase subunit SecA (Escherichia coli (strain K12)) (UniProt P10408) with input Cc1ccccc1C1(CNC(=O)NCCc2nnc3n2CCC3)CC1 equals -1.76

Percent Effect for Protein translocase subunit SecA (Escherichia coli (strain K12)) (UniProt P10408) with input COc1ccc2c(c1)C1(CCN(Cc3ccoc3)CC1)N(C)CC2 equals -1.9

Percent Effect of Cc1nc(N2CCCC2)nc2c1CN(C(C)C)CC2 , assay on Protein translocase subunit SecA (Escherichia coli (strain K12)) (UniProt P10408), is -5.79

Considering Cc1cc(C(=O)N2CCCC2c2nnc3n2CCCCC3)no1 (centres undefined) , its Percent Effect with Protein translocase subunit SecA (Escherichia coli (strain K12)) (UniProt P10408) was recorded as -2.02

Protein translocase subunit SecA (Escherichia coli (strain K12)) (UniProt P10408) Percent Effect of Cc1cc(NC(=O)NCc2ccccn2)n(C)n1 is -3.34

Measured on Protein translocase subunit SecA (Escherichia coli (strain K12)) (UniProt P10408), COc1ccc(CN(Cc2cncn2C)CC2CCCO2)cc1OC (centres undefined) has a documented Percent Effect of -3.49
